Data provenance: paper PMC8753592

# METHOD_DESCRIPTION: in vivo
# CONDITION_PARAMETERS: male, Indian origin, rhesus monkey, in vivo, sc, 300 mg/kg, AUC0-24h
MEASURED_PROPERTY: AUC(0-t)
Answer as a quantity: numeral, then unit.

AUC(0-t) reported for this compound `CC(C)(C#Cc1ccc(-c2ccc(Cl)c3c(NS(=O)(=O)C4CC4)nn(CC(F)F)c23)c([C@H](Cc2cc(F)cc(F)c2)NC(=O)Cn2nc(C(F)F)c3c2C(F)(F)[C@@H]2C[C@H]32)n1)S(C)(=O)=O` : 25.2 µM·h

---

# METHOD_DESCRIPTION: Pilot pharmacokinetic study, single subcutaneous administration
# CONDITION_PARAMETERS: male, Indian origin, rhesus monkey, in vivo, plasma drug level, 100 and 300 mg/kg single s.c.; by day 7
MEASURED_PROPERTY: concentration at 7 day

In plain terms, CC(C)(C#Cc1ccc(-c2ccc(Cl)c3c(NS(=O)(=O)C4CC4)nn(CC(F)F)c23)c([C@H](Cc2cc(F)cc(F)c2)NC(=O)Cn2nc(C(F)F)c3c2C(F)(F)[C@@H]2C[C@H]32)n1)S(C)(=O)=O [GS-CA1] has a documented concentration at 7 day of 400 to 1100 nM

---

# METHOD_DESCRIPTION: Pilot pharmacokinetic study, single subcutaneous administration
# CONDITION_PARAMETERS: male, Indian origin, rhesus monkey, in vivo, 100 mg/kg, Plasma GS-CA1 level, 100 mg/kg s.c.; 6 weeks post dose; individual animals; unit inferred
MEASURED_PROPERTY: concentration at 6 weeks (nM)
Field format: number, assumed nM, no unit text.

# compound CC(C)(C#Cc1ccc(-c2ccc(Cl)c3c(NS(=O)(=O)C4CC4)nn(CC(F)F)c23)c([C@H](Cc2cc(F)cc(F)c2)NC(=O)Cn2nc(C(F)F)c3c2C(F)(F)[C@@H]2C[C@H]32)n1)S(C)(=O)=O [GS-CA1] ; its concentration at 6 weeks = 84.9

---

# METHOD_DESCRIPTION: Plasma GS-CA1 pharmacokinetics in the repeat SHIV challenge study
# Format: in vivo, rhesus macaques of Indian origin
# CONDITION_PARAMETERS: both sexes, Indian origin, rhesus monkey, in vivo, sc, 150 mg/kg, 150 mg/kg single s.c., n=8, mean ± SD
MEASURED_PROPERTY: Cmax (nM)
The reply should contain only the number, in nM.

compound `CC(C)(C#Cc1ccc(-c2ccc(Cl)c3c(NS(=O)(=O)C4CC4)nn(CC(F)F)c23)c([C@H](Cc2cc(F)cc(F)c2)NC(=O)Cn2nc(C(F)F)c3c2C(F)(F)[C@@H]2C[C@H]32)n1)S(C)(=O)=O` , Cmax observed: 3000

---

# METHOD_DESCRIPTION: Plasma GS-CA1 pharmacokinetics in the repeat SHIV challenge study
# Type: in vivo, rhesus macaques of Indian origin
# CONDITION_PARAMETERS: both sexes, Indian origin, rhesus monkey, in vivo, sc, 300 mg/kg, 300 mg/kg single s.c., n=8, mean ± SD
MEASURED_PROPERTY: Tmax

Tmax reported for this compound `CC(C)(C#Cc1ccc(-c2ccc(Cl)c3c(NS(=O)(=O)C4CC4)nn(CC(F)F)c23)c([C@H](Cc2cc(F)cc(F)c2)NC(=O)Cn2nc(C(F)F)c3c2C(F)(F)[C@@H]2C[C@H]32)n1)S(C)(=O)=O` : ~42 h

---

# METHOD_DESCRIPTION: Plasma GS-CA1 pharmacokinetics in the repeat SHIV challenge study
# Format: in vivo, rhesus macaques of Indian origin
# CONDITION_PARAMETERS: both sexes, Indian origin (outbred), rhesus monkey, in vivo, 300 mg/kg, Plasma GS-CA1, GS-CA1 300mg/kg, Week 12, individual animals
# Protocol: For the challenge study, 24 outbred rhesus macaques of Indian origin were assigned to the three study groups with even sex and weight distributions. All animals were housed at Alpha Genesis (Yemassee, SC), and all procedures were conducted in compliance with all relevant local, state and federal regulations and were approved by the Alpha Genesis IACUC. […] The injection sites were monitored daily by veterinary staff for 3 days. […]
MEASURED_PROPERTY: concentration at 12 week (nM)
Give just the number in nM; leave the unit off.

`CC(C)(C#Cc1ccc(-c2ccc(Cl)c3c(NS(=O)(=O)C4CC4)nn(CC(F)F)c23)c([C@H](Cc2cc(F)cc(F)c2)NC(=O)Cn2nc(C(F)F)c3c2C(F)(F)[C@@H]2C[C@H]32)n1)S(C)(=O)=O` yielded concentration at 12 week of 83.4

---

# METHOD_DESCRIPTION: in vivo
# CONDITION_PARAMETERS: male, Indian origin, rhesus monkey, in vivo, sc, 100 mg/kg, AUC0-24h
MEASURED_PROPERTY: AUC(0-t) (µM·h)
Unit µM·h implied. Number only.

Summary for this compound, CC(C)(C#Cc1ccc(-c2ccc(Cl)c3c(NS(=O)(=O)C4CC4)nn(CC(F)F)c23)c([C@H](Cc2cc(F)cc(F)c2)NC(=O)Cn2nc(C(F)F)c3c2C(F)(F)[C@@H]2C[C@H]32)n1)S(C)(=O)=O [GS-CA1] : AUC(0-t) is 19.3

---

# METHOD_DESCRIPTION: Plasma GS-CA1 pharmacokinetics in the repeat SHIV challenge study
# Assay type: in vivo, rhesus macaques of Indian origin
# CONDITION_PARAMETERS: both sexes, Indian origin, rhesus monkey, in vivo; range over the 150 and 300 mg/kg groups; read-out: mean half-life
MEASURED_PROPERTY: half-life

Data point: `CC(C)(C#Cc1ccc(-c2ccc(Cl)c3c(NS(=O)(=O)C4CC4)nn(CC(F)F)c23)c([C@H](Cc2cc(F)cc(F)c2)NC(=O)Cn2nc(C(F)F)c3c2C(F)(F)[C@@H]2C[C@H]32)n1)S(C)(=O)=O` ; half-life = 12 to 13.2 days

---

# METHOD_DESCRIPTION: in vivo
# CONDITION_PARAMETERS: male, Indian origin, rhesus monkey, in vivo, sc, 300 mg/kg, AUC0-336h
MEASURED_PROPERTY: AUC(0-t) (µM·h)
# value in µM·h; strip the unit string

So for `CC(C)(C#Cc1ccc(-c2ccc(Cl)c3c(NS(=O)(=O)C4CC4)nn(CC(F)F)c23)c([C@H](Cc2cc(F)cc(F)c2)NC(=O)Cn2nc(C(F)F)c3c2C(F)(F)[C@@H]2C[C@H]32)n1)S(C)(=O)=O` , the logged AUC(0-t) turned out to be 434

---

# METHOD_DESCRIPTION: in vivo
# CONDITION_PARAMETERS: male, Indian origin, rhesus monkey, in vivo, sc, 100 mg/kg
MEASURED_PROPERTY: half-life (days)
Quick note: give the figure in days, leave out the unit.

Looking up CC(C)(C#Cc1ccc(-c2ccc(Cl)c3c(NS(=O)(=O)C4CC4)nn(CC(F)F)c23)c([C@H](Cc2cc(F)cc(F)c2)NC(=O)Cn2nc(C(F)F)c3c2C(F)(F)[C@@H]2C[C@H]32)n1)S(C)(=O)=O [GS-CA1] , I found its half-life recorded as 25

---

# METHOD_DESCRIPTION: in vivo
# CONDITION_PARAMETERS: male, Indian origin, rhesus monkey, in vivo, sc, 100 mg/kg
MEASURED_PROPERTY: AUC(0-inf) (µM·h)
Write the answer as a number in µM·h, unit excluded.

Item: CC(C)(C#Cc1ccc(-c2ccc(Cl)c3c(NS(=O)(=O)C4CC4)nn(CC(F)F)c23)c([C@H](Cc2cc(F)cc(F)c2)NC(=O)Cn2nc(C(F)F)c3c2C(F)(F)[C@@H]2C[C@H]32)n1)S(C)(=O)=O [GS-CA1] | AUC(0-inf): 333

---

# METHOD_DESCRIPTION: Pilot pharmacokinetic study, single subcutaneous administration
# CONDITION_PARAMETERS: male, Indian origin, rhesus monkey, in vivo, 100 mg/kg, Plasma GS-CA1 level, 100 mg/kg s.c.; 0.43 weeks post dose; individual animals; unit inferred
MEASURED_PROPERTY: concentration at 0.43 weeks (nM)
Give a bare numeral; the unit nM is implied.

Value of concentration at 0.43 weeks reported for the compound `CC(C)(C#Cc1ccc(-c2ccc(Cl)c3c(NS(=O)(=O)C4CC4)nn(CC(F)F)c23)c([C@H](Cc2cc(F)cc(F)c2)NC(=O)Cn2nc(C(F)F)c3c2C(F)(F)[C@@H]2C[C@H]32)n1)S(C)(=O)=O` is 910

---

# METHOD_DESCRIPTION: Pilot pharmacokinetic study, single subcutaneous administration
# CONDITION_PARAMETERS: male, Indian origin, rhesus monkey, in vivo, 100 mg/kg, Plasma GS-CA1 level, 100 mg/kg s.c.; 0.14 weeks post dose; individual animals; unit inferred
# Description: All study protocols were reviewed and approved by the Covance Laboratories Institutional Animal Care and Use Committee (IACUC). Rhesus plasma samples were stored frozen at −80 °C. […] Quantification was performed with a Thermo Scientific Xcalibur 4.0.27.19 using accurate masses (<5 parts per million mass error; [M + H]^+ of 958.1853 for GC-CA1 and 758.3270 for the internal standard, respectively)[22],[23]. […]
MEASURED_PROPERTY: concentration at 0.14 weeks (nM)
Lab book: enter the figure in nM, no units written.

Measured concentration at 0.14 weeks, `CC(C)(C#Cc1ccc(-c2ccc(Cl)c3c(NS(=O)(=O)C4CC4)nn(CC(F)F)c23)c([C@H](Cc2cc(F)cc(F)c2)NC(=O)Cn2nc(C(F)F)c3c2C(F)(F)[C@@H]2C[C@H]32)n1)S(C)(=O)=O` : 1210
